# Measurement Description: Lipophilicity, log D of the compound at pH 7.4 by potentiometric titration method
# Assay type: physicochemical
# Experimental Parameters: buffer
Parameter Measured: logD
The answer should be written as a number, with no unit following it.

chemical_string=Fc1ccc(-c2nc(-c3ccc4nc[nH]c4c3)no2)cc1 observed_result=3.37

Prompt: What value of logD has been recorded for this entry: `c1ccc2cc(-c3nc(-c4ccc5nc[nH]c5c4)no3)ccc2c1`
Response: 5.56

Prompt: Given the entry `c1ccc(-c2nc(-c3ccc4nc[nH]c4c3)no2)cc1` , report its measured logD.
Response: 3.66

Prompt: So what's the measured logD for this one? `Clc1ccc(-c2nc(-c3ccc4nc[nH]c4c3)no2)cc1`
Response: 3.71

Prompt: Quick one: logD for `Brc1ccc(-c2nc(-c3ccc4nc[nH]c4c3)no2)cc1` ?
Response: 3.54

Prompt: GET /values?readout=logD&item= `FC(F)(F)c1ccccc1-c1nc(-c2ccc3nc[nH]c3c2)no1`
Response: 4.01

###

# System Tested: Nuclear factor erythroid 2-related factor 2 (Homo sapiens) (UniProt Q16236)
# Sequence (Q16236 whole entry): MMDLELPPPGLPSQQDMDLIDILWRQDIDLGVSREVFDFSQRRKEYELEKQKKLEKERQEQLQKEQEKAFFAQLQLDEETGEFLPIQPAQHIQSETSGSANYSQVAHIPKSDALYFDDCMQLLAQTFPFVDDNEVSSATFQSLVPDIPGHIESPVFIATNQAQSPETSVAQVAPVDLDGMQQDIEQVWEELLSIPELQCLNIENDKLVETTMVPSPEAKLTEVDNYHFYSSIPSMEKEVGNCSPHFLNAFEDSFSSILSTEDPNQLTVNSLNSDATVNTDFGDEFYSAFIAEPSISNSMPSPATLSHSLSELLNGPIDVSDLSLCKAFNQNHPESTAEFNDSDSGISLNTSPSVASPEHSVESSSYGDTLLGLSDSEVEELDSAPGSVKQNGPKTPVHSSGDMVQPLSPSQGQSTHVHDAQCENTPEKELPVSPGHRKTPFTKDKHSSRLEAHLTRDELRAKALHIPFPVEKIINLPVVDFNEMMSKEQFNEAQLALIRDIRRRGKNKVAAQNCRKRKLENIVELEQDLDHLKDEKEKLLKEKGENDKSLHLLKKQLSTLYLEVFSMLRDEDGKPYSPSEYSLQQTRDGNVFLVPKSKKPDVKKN
# Measurement Description: Activation of Nrf2 in human HepG2-ARE-C8 cells assessed as upregulation of ARE level at 40 uM after 12 hrs by luciferase reporter gene assay relative to control
# Assay type: cell-based
Listed here are molecules together with their documented fold change (FC).

Examples from the recorded data:
chemical_string=c1cc(-c2nc(-c3ccc4nc[nH]c4c3)no2)ccn1 system_tested="Nuclear factor erythroid 2-related factor 2 (Homo sapiens) (UniProt Q16236)" parameter_measured="fold change (FC)" observed_result=4.95
chemical_string=c1ccc2nc(-c3nc(-c4ccc5nc[nH]c5c4)no3)ccc2c1 system_tested="Nuclear factor erythroid 2-related factor 2 (Homo sapiens) (UniProt Q16236)" parameter_measured="fold change (FC)" observed_result=16.9

Prompt: Give the measured fold change (FC) of `Oc1ccccc1-c1nc(-c2ccc3nc[nH]c3c2)no1` .
Response: 2.75

Prompt: Need fold change (FC) of `COc1ccccc1-c1nc(-c2ccc3nc[nH]c3c2)no1` , thanks.
Response: 10.7

Prompt: Entry under review: `Clc1ccc(-c2nc(-c3ccc4nc[nH]c4c3)no2)cc1` . Reported fold change (FC)?
Response: 18.5

Prompt: Given the entry `COc1cccc(-c2nc(-c3ccc4nc[nH]c4c3)no2)c1` , report its measured fold change (FC).
Response: 14.4

###

# System Tested: Nuclear factor erythroid 2-related factor 2 (Homo sapiens) (UniProt Q16236)
# Measurement Description: Activation of Nrf2 in human HepG2-ARE-C8 cells assessed as upregulation of ARE level at 2 uM after 12 hrs by luciferase reporter gene assay relative to control
# Assay type: cell-based
Bucketed by reported fold change (FC), buckets being zone 1 = under 2, zone 2 = from 2 up to 5, zone 3 = 5 and over

Prompt: Class for `FC(F)(F)c1cccc(-c2nc(-c3ccc4nc[nH]c4c3)no2)c1` ?
Response: zone 3

###

# System Tested: Nuclear factor erythroid 2-related factor 2 (Homo sapiens)
# Measurement Description: Activation of Nrf2 in human HepG2-ARE-C8 cells assessed as upregulation of ARE level at 0.02 uM after 12 hrs by luciferase reporter gene assay relative to control
# Format: cell-based
Each item that follows carries a reported fold change (FC).
Lab note: record just the number, no unit beside it.

chemical_string=O=[N+]([O-])c1ccccc1-c1nc(-c2ccc3nc[nH]c3c2)no1 observed_result=1.73
chemical_string=N#Cc1cccc(-c2nc(-c3ccc4nc[nH]c4c3)no2)c1 observed_result=1.26
chemical_string=COc1ccc(-c2nc(-c3ccc4nc[nH]c4c3)no2)cc1 observed_result=1.43
chemical_string=COC(=O)/C=C/C(=O)OC observed_result=0.82

// next entry
Prompt: GET /values?readout=fold change (FC)&item= `COc1ccc(-c2nc(-c3ccc4nc[nH]c4c3)no2)c(OC)c1`
Response: 1.25

###

# System Tested: UniProt:Q16236
# Measurement Description: Activation of Nrf2 in human HepG2-ARE-C8 cells assessed as upregulation of ARE level at 0.02 uM after 12 hrs by luciferase reporter gene assay relative to control
# Format: cell-based
Parameter Measured: fold change (FC)
Hey, just send me the number, nothing else.

chemical_string=Cc1ccc(-c2nc(-c3ccc4nc[nH]c4c3)no2)cc1 observed_result=2.11
chemical_string=CCCCc1ccc(-c2nc(-c3ccc4nc[nH]c4c3)no2)cc1 observed_result=1.55
chemical_string=O=[N+]([O-])c1cccc(-c2nc(-c3ccc4nc[nH]c4c3)no2)c1 observed_result=1.43
chemical_string=c1ccc(-c2nc(-c3ccc4nc[nH]c4c3)no2)cc1 observed_result=1.49
chemical_string=COc1ccc(OC)c(-c2nc(-c3ccc4nc[nH]c4c3)no2)c1 observed_result=1.7
chemical_string=Cc1nc2cc(-c3noc(-c4ccccc4Br)n3)ccc2o1 observed_result=1.18

Prompt: State the recorded fold change (FC) for this entry: `Cn1cnc2ccc(-c3noc(-c4ccc5cc[nH]c5c4)n3)cc21`
Response: 1.09

Prompt: Look up fold change (FC) for this compound: `Cn1nnc2ccc(-c3noc(-c4ccc(F)cc4)n3)cc21`
Response: 1.46

Prompt: Could you tell me which fold change (FC) is on file for `COc1cc(-c2nc(-c3ccc4nc[nH]c4c3)no2)cc(OC)c1OC` ?
Response: 1.31

Prompt: Give the measured fold change (FC) of `c1cc(-c2nc(-c3ccc4nc[nH]c4c3)no2)ccn1` .
Response: 1.91

Prompt: Please look up its fold change (FC): `c1ccc(-c2ccc(-c3nc(-c4ccc5nc[nH]c5c4)no3)cc2)cc1`
Response: 1.18

###

# System Tested: Nuclear factor erythroid 2-related factor 2 (Homo sapiens) (UniProt Q16236)
# Measurement Description: Activation of Nrf2 in human HepG2-ARE-C8 cells assessed as upregulation of ARE level at 40 uM after 12 hrs by luciferase reporter gene assay relative to control
# Format: cell-based
Tick yes (1) if fold change (FC) is 10 or greater. Tick no (0) if fold change (FC) is less than 10.

Example entries begin here.
chemical_string=c1ccc(-c2nc(-c3ccc4nc[nH]c4c3)no2)cc1 discrete_label="yes (1)"
chemical_string=c1ccc(-c2ccc(-c3nc(-c4ccc5nc[nH]c5c4)no3)cc2)cc1 discrete_label="yes (1)"
chemical_string=Cn1cnc2ccc(-c3noc(-c4ccccc4)n3)cc21 discrete_label="no (0)"
chemical_string=Oc1ccc(-c2nc(-c3ccc4nc[nH]c4c3)no2)cc1 discrete_label="no (0)"
chemical_string=COc1ccc(-c2nc(-c3ccc4nc[nH]c4c3)no2)c(OC)c1 discrete_label="yes (1)"
chemical_string=CCCc1ccc(-c2nc(-c3ccc4nc[nH]c4c3)no2)cc1 discrete_label="no (0)"
chemical_string=O=[N+]([O-])c1ccccc1-c1nc(-c2ccc3nc[nH]c3c2)no1 discrete_label="yes (1)"
chemical_string=Cn1cnc2ccc(-c3noc(-c4ccc5cc[nH]c5c4)n3)cc21 discrete_label="yes (1)"

Prompt: Does the compound `FC(F)(F)c1ccc(-c2nc(-c3ccc4nc[nH]c4c3)no2)cc1` have recorded fold change (FC) that is 10 or more?
Response: yes (1)

Prompt: Reported fold change (FC) at or above 10? `CC(C)(C)C1=CC(=O)C=CC1=O`
Response: no (0)

Prompt: Could you verify whether the entry `CCCCc1ccc(-c2nc(-c3ccc4nc[nH]c4c3)no2)cc1` shows fold change (FC) of no less than 10?
Response: yes (1)

Prompt: Decide: is the reported value of fold change (FC) for `FC(F)(F)c1ccccc1-c1nc(-c2ccc3nc[nH]c3c2)no1` equal to or greater than 10?
Response: yes (1)

###

# System Tested: Nuclear factor erythroid 2-related factor 2 (Homo sapiens) (UniProt Q16236)
# Measurement Description: Activation of Nrf2 in human HepG2-ARE-C8 cells assessed as upregulation of ARE level at 160 uM after 12 hrs by luciferase reporter gene assay relative to control
# Type: cell-based
Could you label it Yes if measured fold change (FC) is 6 or higher, and No otherwise?

chemical_string=Cn1nnc2ccc(-c3noc(-c4ccc(F)cc4)n3)cc21 discrete_label=Yes
chemical_string=Cn1cnc2ccc(-c3noc(-c4ccc5cc[nH]c5c4)n3)cc21 discrete_label=Yes
chemical_string=N#Cc1cccc(-c2nc(-c3ccc4nc[nH]c4c3)no2)c1 discrete_label=Yes
chemical_string=O=[N+]([O-])c1ccc(-c2nc(-c3ccc4nc[nH]c4c3)no2)cc1 discrete_label=Yes
chemical_string=Clc1ccc(-c2nc(-c3ccc4nc[nH]c4c3)no2)cc1 discrete_label=Yes
chemical_string=CCc1ccc(-c2nc(-c3ccc4nc[nH]c4c3)no2)cc1 discrete_label=No
chemical_string=COc1ccc(-c2nc(-c3ccc4nc[nH]c4c3)no2)c(OC)c1 discrete_label=No
chemical_string=Cn1nnc2cc(-c3noc(-c4ccccc4)n3)ccc21 discrete_label=Yes
chemical_string=c1ccc2nc(-c3nc(-c4ccc5nc[nH]c5c4)no3)ccc2c1 discrete_label=Yes
chemical_string=COc1cc(-c2nc(-c3ccc4nc[nH]c4c3)no2)cc(OC)c1OC discrete_label=Yes

Prompt: Determine whether measured fold change (FC) meets or exceeds 6 for `N#Cc1ccc(-c2nc(-c3ccc4nc[nH]c4c3)no2)cc1`
Response: Yes

Prompt: Check this compound for fold change (FC) at or above 6: `c1ccc(-c2ccc(-c3nc(-c4ccc5nc[nH]c5c4)no3)cc2)cc1`
Response: Yes

Prompt: Tell me whether fold change (FC) is at least 6 here: `O=[N+]([O-])c1cccc(-c2nc(-c3ccc4nc[nH]c4c3)no2)c1`
Response: Yes

Prompt: Exam item: decide whether the reported fold change (FC) for `FC(F)(F)c1cccc(-c2nc(-c3ccc4nc[nH]c4c3)no2)c1` is at least 6.
Response: No

Prompt: Entry `Cn1cnc2ccc(-c3noc(-c4ccccc4)n3)cc21` : is its fold change (FC) no less than 6?
Response: No

Prompt: Textbook exercise: given the entry `FC(F)(F)c1ccccc1-c1nc(-c2ccc3nc[nH]c3c2)no1` , state whether its fold change (FC) is greater than or equal to 6.
Response: No
